// data source = ChEMBL document CHEMBL3232902

- Tested on: L1210
- method_description: Cytostatic activity against mouse L1210 cells after 48 hrs by coulter counting analysis
- Format: functional, cell-based
- conditions_used: Mus musculus, L1210, 48 h
Simple rule here: IC50 less than 200 nM is Satisfied, otherwise Not satisfied.

compound	category_label
C[C@H](Cn1cnc2c(N)ncnc21)OCP(=O)(N[C@@H](C)C(=O)OCc1ccccc1)N[C@@H](C)C(=O)OCc1ccccc1	Not satisfied
C[C@H](NP(=O)(COCCn1cnc2c(N)ncnc21)Oc1ccccc1)C(=O)OCC(C)(C)C (stereo partly drawn)	Satisfied
C[C@H](NP(=O)(COCCn1cnc2c(N)ncnc21)Oc1cccc2ccccc12)C(=O)OCc1ccccc1 (stereo partly drawn)	Satisfied

Is the reported IC50 for C[C@H](Cn1cnc2c(N)ncnc21)OCP(=O)(N[C@@H](C)C(=O)OCC(C)(C)C)N[C@@H](C)C(=O)OCC(C)(C)C strictly below 200 nM? Not satisfied

Is the reported IC50 for C[C@H](NP(=O)(COCCn1cnc2c(N)ncnc21)N[C@@H](C)C(=O)OCC(C)(C)C)C(=O)OCC(C)(C)C strictly below 200 nM? Not satisfied

Is the reported IC50 for C[C@H](NP(=O)(COCCn1cnc2c(N)ncnc21)Oc1cccc2c1CCCC2)C(=O)OCC(C)(C)C (stereo partly drawn) strictly below 200 nM? Satisfied

Is the reported IC50 for C[C@H](NP(=O)(COCCn1cnc2c(N)ncnc21)Oc1cccc2ccccc12)C(=O)OCC(C)(C)C (stereo partly drawn) strictly below 200 nM? Satisfied

Is the reported IC50 for C[C@H](Cn1cnc2c(N)ncnc21)OCP(=O)(N[C@@H](C)C(=O)OCC(C)(C)C)Oc1cccc2c1CCCC2 (stereo partly drawn) strictly below 200 nM? Not satisfied
